test: Oral bioavailability in beagle dog at 10.5 mg/kg, iv measured up to 7 hrs by LC-MS/MS analysis; format: ADME, organism-based, Canis lupus familiaris; conditions: in vivo
READOUT LABEL: bioavailability (%)
Response body: numeric value in %, unit text excluded.

Asked: What value of bioavailability has been recorded for this entry: CNC(=O)c1cc(C(=O)NC2CC2)cn(Cc2ccccc2)c1=O
Given back: 57

###

# Lookup of reported chromatographic logD keyed by entry
assay: Distribution coefficient, logD of the compound at pH 7.4 by chromatography; type: physicochemical
Just the number, please, no unit after it.

Some solved entries appear below for comparison.
{"columns": ["COMPOUND", "RECORDED RESULT"],
 "data": [
  ["CNC(=O)c1cc(C(=O)NCCC(C)C)cn(Cc2ccccc2)c1=O", 4.8],
  ["CNC(=O)c1cccn(Cc2ccccc2)c1=O", 3],
  ["CNC(=O)c1cc(C(=O)NC2CC2)cn(Cc2cccc(CCN3CCOCC3)c2)c1=O", 2.3],
  ["CNC(=O)c1cc(C(=O)NC2CC2)cn(Cc2cccc(C)c2)c1=O", 3.6],
  ["CNC(=O)c1cc(C(=O)NC2CCC2)cn(Cc2cccnc2)c1=O", 1.8]
]}

Asked: Can you look up the measured chromatographic logD of CNC(=O)c1cc(C(=O)NC2CC2)c(C)n(Cc2ccccc2)c1=O for me?
Given back: 2.9

Asked: Sample CNC(=O)c1cc(C(=O)NC2CC2)cn(CC2CCCOC2)c1=O (racemic) — what was its chromatographic logD?
Given back: 2

Asked: I would be grateful if you could share the reported chromatographic logD for CNC(=O)c1cc(C(=O)NCC(C)C)cn(Cc2ccccc2)c1=O .
Given back: 4.3

Asked: Given the compound CNC(=O)c1cc(C(=O)NC2CC2)cn(Cc2cccc(C#N)c2)c1=O , what is its reported chromatographic logD?
Given back: 2.6

Asked: For the compound shown here, CNC(=O)c1cc(C(=O)NC2CC2)cn(Cc2cccc3occc23)c1=O , give the reported chromatographic logD.
Given back: 3.4

###

test: Volume of distribution at steady state in beagle dog at 10.5 mg/kg, iv measured up to 7 hrs by LC-MS/MS analysis; type: ADME, organism-based, Canis lupus familiaris; settings: in vivo, read-out: Vdss
READOUT LABEL: Vd
Number first, unit second: that is the form wanted.

Asked: # get_value(readout='Vd', item= CNC(=O)c1cc(C(=O)NC2CC2)cn(Cc2ccccc2)c1=O [GSK620] )
Given back: 1 L/kg

###

experiment: Volume of distribution at steady state in male Wistar Han rat at 1 mg/kg, iv measured up to 7 hrs by LC-MS/MS analysis; assay type: ADME, organism-based; details: in vivo, read-out: Vdss
Returns T if the recorded Vd is greater than or equal to 1 L/kg, and F otherwise.

{"columns": ["CHEMICAL STRING", "CAT"],
 "data": [
  ["CNC(=O)c1cc(C(=O)NC2CC2)cn(Cc2ccccc2)c1=O", "F"]
]}

Asked: Does the compound CCNC(=O)c1cc(C(=O)NC)c(=O)n(Cc2ccccc2)c1 have recorded Vd that is 1 L/kg or more?
Given back: F

Asked: Hello, I need to know if CNC(=O)c1cc(C(=O)NC2CC2)cn(Cc2cccc3[nH]ccc23)c1=O has measured Vd not below 1 L/kg. Thanks!
Given back: T

Asked: Quick check: does CNC(=O)c1cc(C(=O)NC2CC2)cn(Cc2cccc3c2CCN3)c1=O have Vd greater than or equal to 1 L/kg?
Given back: F

Asked: For this compound, is measured Vd 1 L/kg or higher? CNC(=O)c1cc(C(=O)NC2CC2)cn(Cc2cccc([C@@H](C)O)c2)c1=O
Given back: T

Asked: State whether the measured Vd reaches 1 L/kg, counting equality as reaching it, for CNC(=O)c1cc(C(=O)NC2CC2)cn(Cc2cccc3[nH]ncc23)c1=O
Given back: T

Where these numbers come from: ChEMBL document CHEMBL4622971
